Here, each record is paired with measured GI50 data.
Test system: HOP-92
Assay: Growth inhibition of human HOP-92 cells measured after 48 hrs by SRB assay
Type: functional
# output: numeric value plus its unit

Sample answers from the record:
chemical-string	GI50
CCO[C@H]1C=C2CC[C@@H]3[C@H]([C@@H](O)C[C@]4(C)[C@@H](c5ccc(=O)oc5)CC[C@]34O)[C@@]2(C)CC1	757 nM
CC(=O)OC[C@H]1O[C@@H](O[C@@H]2C=C3CC[C@@H]4[C@H]([C@@H](O)C[C@]5(C)[C@@H](c6ccc(=O)oc6)CC[C@]45O)[C@@]3(C)CC2)[C@H](OC(C)=O)[C@@H](OC(C)=O)[C@@H]1OC(C)=O	286 nM

--- query ---
In: Return reported GI50; argument: `C[C@]12CC[C@H](O)C=C1CC[C@@H]1[C@@H]2[C@@H](O)C[C@]2(C)[C@@H](c3ccc(=O)oc3)CC[C@]12O`
Out: 2080 nM

====

Tested on: HL-60
Experiment: Growth inhibition of human HL-60 cells measured after 48 hrs by SRB assay
Format: functional
endpoint-name: GI50 (nM)
Kindly answer with a numeric value in nM, unit omitted.

Sample answers from the record:
chemical-string	units-symbol	GI50
C[C@]12CC[C@H](O[C@@H]3O[C@H](CO)[C@@H](O)[C@H](O)[C@H]3O)C=C1CC[C@@H]1[C@@H]2[C@@H](O)C[C@]2(C)[C@@H](c3ccc(=O)oc3)CC[C@]12O	nM	50
C[C@]12CC[C@@H](O)C=C1CC[C@@H]1[C@@H]2[C@@H](O)C[C@]2(C)[C@@H](c3ccc(=O)oc3)CC[C@]12O	nM	273
CCO[C@H]1C=C2CC[C@@H]3[C@H]([C@@H](O)C[C@]4(C)[C@@H](c5ccc(=O)oc5)CC[C@]34O)[C@@]2(C)CC1	nM	649

--- query ---
In: Return reported GI50; argument: `C[C@]12C[C@H](O)[C@H]3[C@@H](CCC4=C[C@@H](O[C@@H]5O[C@H](CO)[C@@H](O)[C@H](O)[C@H]5O)CC[C@@]43CO)[C@@]1(O)CC[C@@H]2c1ccc(=O)oc1`
Out: 7

====

System: IGROV-1
Experiment: Growth inhibition of human IGROV-1 cells measured after 48 hrs by SRB assay
Format: functional
endpoint-name: GI50

Sample answers from the record:
chemical-string	readout-value
CC(=O)OC[C@H]1O[C@@H](O[C@@H]2C=C3CC[C@@H]4[C@H]([C@@H](O)C[C@]5(C)[C@@H](c6ccc(=O)oc6)CC[C@]45O)[C@@]3(C)CC2)[C@H](OC(C)=O)[C@@H](OC(C)=O)[C@@H]1OC(C)=O	111 nM
C[C@]12CC[C@H](O[C@@H]3O[C@H](CO)[C@@H](O)[C@H](O)[C@H]3O)C=C1CC[C@@H]1[C@@H]2[C@@H](O)C[C@]2(C)[C@@H](c3ccc(=O)oc3)CC[C@]12O	64 nM
C[C@]12C[C@H](O)[C@H]3[C@@H](CCC4=C[C@@H](O[C@@H]5O[C@H](CO)[C@@H](O)[C@H](O)[C@H]5O)CC[C@@]43CO)[C@@]1(O)CC[C@@H]2c1ccc(=O)oc1	16 nM
CCO[C@@H]1C=C2CC[C@@H]3[C@H]([C@@H](O)C[C@]4(C)[C@@H](c5ccc(=O)oc5)CC[C@]34O)[C@@]2(C)CC1	138 nM

--- query ---
In: Give GI50 (IGROV-1) of the following compound: `C[C@]12CC[C@H]3[C@@H](CC[C@H]4C[C@@H](O)CC[C@@]43C=O)[C@@]1(O)CC[C@@H]2c1ccc(=O)oc1`
Out: 5060 nM
